Target: Bile acid receptor (Homo sapiens)
Assay: qHTS assay to identify small molecule agonists of the farnesoid-X-receptor (FXR) signaling pathway (AID 743220)
Details: HEK293T FXR-UAS-bla, beta-lactamase FRET ratio, 16 h; series mostly up to 62.6 µM
Results filed as inconclusive are left out. Active and inactive are the calls of the source. Calls come from the whole dose curve; as a rule, active = well fitted activation curve with a large enough effect in the signal ratio in the repeat runs (not every such curve was filed as active); inconclusive = weak or mixed curves, or effect the other way; inactive = flat fitted curve, though single readings scatter; the % refers to the signal ratio.
ENDPOINT_NAME: outcome

| MOL | outcome |
| --- | --- |
| CN(C)/N=N/c1nc[nH]c1C(N)=O | inactive |
| CCCCCC=O | inactive |
| NCCOCCO | inactive |
| O=C(O)c1ccc(O)cc1 | inactive |

[in] Supply measured outcome of "Cc1ccc([N+](=O)[O-])c(C)c1" in your reply.
[out] inactive

[in] Please indicate outcome recorded for "C=C[Si](OCCOC)(OCCOC)OCCOC"
[out] inactive

[in] Consider the compound "CN(C)CCCN1c2ccccc2Sc2ccc(Cl)cc21" and give its recorded outcome.
[out] inactive

[in] For the compound "CC1(C)NC(=O)N(c2ccc([N+](=O)[O-])c(C(F)(F)F)c2)C1=O" , give its reported outcome.
[out] inactive

----------
Assay: qHTS assay to identify small molecule antagonists of the progesterone receptor (PR) signaling pathway - cell viability counter screen (AID 1346798); note: nearly all actives have a fitted effect of over 50% in size
Details: PR-UAS-bla HEK293T viability, CellTiter-Glo luminescence, 16 h; series mostly up to 92.4 µM
Inconclusive results are not listed. Activity calls are given as the source filed them. Calls follow the shape of the dose curve; as a rule, active = well fitted cell-killing curve with a large enough effect in the repeat runs; inconclusive = weak or mixed curves, or effect the other way; inactive = no such curve, though single readings can be large or run the other way.
Give one outcome, nothing more. List: active, inactive

[in] Which outcome did this test record for the compound "CN(C)C" ?
[out] inactive

[in] So what was the verdict on CCCCCC1C(=O)CCC1CC(=O)OC (stereo unspecified) in this test?
[out] inactive

[in] Recorded call for "Nc1ccc(N)c(Cl)c1" ?
[out] inactive

[in] Lab log entry: "CC/C(=C(/CC)c1ccc(O)cc1)c1ccc(O)cc1" — outcome as called in the assay?
[out] active

[in] Could you please tell me the result logged for CC1(C)C(C=C(Cl)Cl)C1C(=O)OCc1cccc(Oc2ccccc2)c1 (stereo unspecified) in this assay?
[out] inactive

[in] What call does the record list for "CCCN1C=CN(C)C1" ?
[out] inactive

[in] Call for entry C=CC(C)(O)CCC=C(C)C (stereo unspecified) :
[out] inactive

[in] Check the results log: what was the call for "c1ccc2c(c1)[nH]c1ccccc12" ?
[out] inactive

[in] Could you check what this test reported for "O=S1(=O)CCCO1" ?
[out] inactive

[in] Entry "CC(=O)Oc1c(C)c(C)c2c(c1C)CC[C@@](C)(CCC[C@H](C)CCC[C@H](C)CCCC(C)C)O2" : call = ?
[out] inactive

[in] // return assay outcome for "NCCOCCO"
[out] inactive

[in] Dear all, I need the recorded test outcome for "C=C[C@H]1CN2CC[C@H]1C[C@H]2[C@H](O)c1ccnc2ccc(OC)cc12" , thank you.
[out] inactive

[in] What outcome does the record of this test show for CCc1cccc2c3c([nH]c12)C(CC)(CC(=O)O)OCC3 (stereo unspecified) ?
[out] inactive

[in] Can you look up the reported call for "CCCCCCCC/C=C\CCCCCCCC(=O)O" for me?
[out] inactive

[in] Recorded test call requested for "C=CC(=O)OCCCC"
[out] inactive

[in] # fetch the recorded call for "COc1ccc(-c2coc3cc(O)cc(O)c3c2=O)cc1" here
[out] inactive

[in] Outcome? "CCCOCCO"
[out] inactive

[in] Please indicate how the test categorized "c1ccc2ncccc2c1" .
[out] inactive

[in] Which result was noted for this compound in the test: "CCCCCC=O"
[out] inactive

[in] # outcome recorded in this test, key = "Cc1ccc(S(=O)(=O)O)cc1C"
[out] inactive

[in] Answer briefly: the call reported for "CC(=O)Nc1ccc2c(c1)Cc1cc(NC(C)=O)ccc1-2" in this assay.
[out] inactive

[in] Assay result, entry "Cc1ccc(C)c(O)c1" — outcome?
[out] inactive

[in] Entry "NCCN" : call = ?
[out] inactive

[in] For "Cc1ccc(S(=O)(=O)NCl)cc1" , which call appears in the assay record?
[out] inactive

[in] Outcome logged for "[O-]/[N+](=N\O)c1ccccc1" in this assay:
[out] inactive

[in] Dear all, I need the recorded test outcome for "OC[C@@H](O)[C@@H](O[C@@H]1O[C@H](CO)[C@H](O)[C@H](O)[C@H]1O)[C@H](O)[C@@H](O)CO" , thank you.
[out] inactive

[in] Per the assay record, what outcome was assigned to "Nc1ccc2c(c1)C(=O)c1ccccc1C2=O" ?
[out] inactive

[in] Tell me the recorded outcome of this test for "C=CCOC(=O)C(=C)C" .
[out] inactive

[in] Which outcome was assigned to "Nc1cc([N+](=O)[O-])ccc1C(=O)O" in this test?
[out] inactive

[in] Query: recorded result category for "CC1(C)NC(=O)N(c2ccc([N+](=O)[O-])c(C(F)(F)F)c2)C1=O" in this test
[out] inactive

[in] Tell me the assay call for FC(F)(F)C(Cl)Br (stereo unspecified) please.
[out] inactive

[in] Hi, do you know how "O=C(O)c1ccc(O)cc1" came out in this test?
[out] inactive

[in] Could you please tell me the result logged for "CCO[Si](CCCNC(N)=O)(OCC)OCC" in this assay?
[out] inactive

[in] What is the recorded call for this compound in the test? "CN(Cc1cnc2nc(N)nc(N)c2n1)c1ccc(C(=O)N[C@@H](CCC(=O)O)C(=O)O)cc1"
[out] inactive

[in] What was the test verdict on "Nc1cc(Cl)c(N)c(Cl)c1" ?
[out] inactive

[in] Can you look up the reported call for "Cc1ccc(C(C)(C)C)cc1" for me?
[out] inactive

[in] How did this test come out for "IC(I)I" ?
[out] inactive

[in] For "C1CN(SSN2CCOCC2)CCO1" , which call appears in the assay record?
[out] inactive

[in] Check the results log: what was the call for "CC(=O)OC(C)C" ?
[out] inactive

[in] Look up the recorded call for "ClC/C=C/CCl" in this test.
[out] inactive

[in] Per the assay record, what outcome was assigned to "Brc1nc2ccccc2s1" ?
[out] inactive

[in] Name the outcome recorded for "COc1ccc(C(=O)c2ccccc2O)c(O)c1" in the assay.
[out] inactive

[in] Fill in: this test's call for "CCCCCCCCCCCCO" is ___
[out] inactive

[in] Can you look up the reported call for "CC(=O)O[C@]1(C(C)=O)CC[C@H]2[C@@H]3C=C(Cl)C4=CC(=O)CC[C@]4(C)[C@H]3CC[C@@]21C" for me?
[out] inactive

[in] # fetch the recorded call for "CC/C=C\C/C=C\C/C=C\CCCCCCCC(=O)O" here
[out] inactive

[in] Please state the recorded outcome for this compound: "CC(C)=CCO"
[out] inactive
